# studySystem: ENL YEATS domain (AviSUMO-ENL YEATS) (Homo sapiens)
# Construct: encoding ENL YEATS (aa 1−148) was cloned in pET28a-; made in house; host or cells: E. coli BL21(DE3pLysS), co-expressed with BirA (pBirAcm)
# Sequence (Q03111 1-148): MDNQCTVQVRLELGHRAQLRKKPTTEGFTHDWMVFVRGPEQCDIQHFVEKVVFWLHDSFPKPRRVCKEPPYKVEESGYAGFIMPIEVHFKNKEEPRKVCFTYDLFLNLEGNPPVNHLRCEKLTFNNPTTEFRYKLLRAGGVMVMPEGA
# protocolText: Phage panning of BuK-containing 7-mer library against AviSUMO-ENL YEATS with Illumina NGS abundance
# experimentalContext: sheet ENLR3: round 3 of panning against ENL YEATS; TAG = amber codon (BuK); 7-mer library positions V1-V7
readoutName: percent (share of sequence reads) (%)
Express your answer in %, writing the number without its unit.

substance	percent (share of sequence reads) (%)
CWVCLPH	0.0009106
HYVLFTAGG	0.5573
SWILWTAGG	0.007285
QCCPRTAGD	0.009106
FKCTAGNGC	0.0009106

Suppose we examine the substance WWIIEQG ; what percent (share of sequence reads) value has been reported? 0.001821

Could you do the same for SWIIETAGG , please? 0.004553

Follow-up entry: CYDLCTAGG 0.01912

Please answer likewise for WWIIKTAGG 0.008196

---

# studySystem: ENL YEATS domain (AviSUMO-ENL YEATS) (Homo sapiens)
# Construct: encoding ENL YEATS (aa 1−148) was cloned in pET28a-; made in house; host or cells: E. coli BL21(DE3pLysS), co-expressed with BirA (pBirAcm)
# Sequence (Q03111 1-148): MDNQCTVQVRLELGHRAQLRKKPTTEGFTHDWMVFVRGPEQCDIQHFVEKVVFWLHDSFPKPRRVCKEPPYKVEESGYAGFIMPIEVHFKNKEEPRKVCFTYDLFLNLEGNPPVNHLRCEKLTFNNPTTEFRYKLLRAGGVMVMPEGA
# protocolText: Phage panning of BuK-containing 7-mer library against AviSUMO-ENL YEATS with Illumina NGS abundance
# experimentalContext: sheet ENLR3: round 3 of panning against ENL YEATS; TAG = amber codon (BuK); 7-mer library positions V1-V7
n (number of NGS reads of the unique amino acid sequence) reference
When you answer, write just the number.

recordSequence	numericValue
WWVIETAGG	4
HLTLFTAGC	2
CDVYCYTAG	10
MFTAGITDN	1
LTAGMPRSF	1

We next turn to a different sequence, shown below.
Please give the measured n (number of NGS reads of the unique amino acid sequence) for this sequence: QCGPRTAGN 3

---

# studySystem: ENL YEATS domain (AviSUMO-ENL YEATS) (Homo sapiens, UniProt Q03111)
# Construct: encoding ENL YEATS (aa 1−148) was cloned in pET28a-; made in house; host or cells: E. coli BL21(DE3pLysS), co-expressed with BirA (pBirAcm)
# Sequence (Q03111 1-148): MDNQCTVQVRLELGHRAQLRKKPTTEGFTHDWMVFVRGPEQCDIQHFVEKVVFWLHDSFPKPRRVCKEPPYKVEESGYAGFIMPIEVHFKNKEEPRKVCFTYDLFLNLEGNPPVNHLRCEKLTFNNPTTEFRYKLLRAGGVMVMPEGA
# protocolText: Phage panning of BuK-containing 7-mer library against AviSUMO-ENL YEATS with Illumina NGS abundance
# experimentalContext: sheet ENLR3: round 3 of panning against ENL YEATS; TAG = amber codon (BuK); 7-mer library positions V1-V7
readoutName: n (number of NGS reads of the unique amino acid sequence)
Give a plain numeric answer without units written out.

In the examples that follow, each entry is paired with its recorded n (number of NGS reads of the unique amino acid sequence).
substance	numericValue
RTVYCYTAG	142
WWIITAGTAGG	19
YDVYCFTAG	2
YLYTAGFPC	5
WWIIEKG	2

Query: n (number of NGS reads of the unique amino acid sequence); subject: WWIIDTAGG 29
